read-out: Keratin 19 (KRT19), KRT19 (gene 3880); assay: LTEA_HepaRG_KRT19: Life Technologies and Expression Analysis (LTEA) Assay for Keratin 19 (KRT19) using HepaRG (AID 2283512); details: mRNA level, 48 h; actives raise or lower the signal
Active and inactive are the calls of the source. Rule for the calls: active = hit-call score of the fitted dose curve at least 0.9, where 1 is the maximum; inactive = score below 0.9.
Respond only with the outcome that fits, drawn from YES for active, NO for inactive

Below are worked cases with known answers.
[[record]]
compound = "Cc1ccccc1[N+](=O)[O-]"
classification = "NO"

[[record]]
compound = "C=CC(=O)NCNC(=O)C=C"
classification = "NO"

[[record]]
compound = "CC(C)(O)C(=O)Nc1ccc([N+](=O)[O-])c(C(F)(F)F)c1"
classification = "NO"


Fill in: this test's call for Oc1ccc(C(c2ccc(O)cc2)(C(F)(F)F)C(F)(F)F)cc1 is ___ NO

Fill in: this test's call for CN(C)CCO is ___ NO

Fill in: this test's call for CCCCCCCCCC[N+](C)(C)CCCCCCCCCC is ___ NO

Fill in: this test's call for C[C@]12CCC(=O)C=C1CC[C@@H]1[C@@H]2CC[C@@]2(C)[C@H]1CC[C@]2(C)O is ___ NO

Fill in: this test's call for CCC(C)c1cc([N+](=O)[O-])cc([N+](=O)[O-])c1O (stereo not drawn) is ___ YES

====

Assay: CCTE_Shafer_MEA_acute_spike_number: CCTE's Neural Acute Assay for Total Number of Spikes, Shafer Lab (AID 2284008)
Method: CCTE_Shafer_MEA_acute assay is conducted using Axion Biosystems 48 well microelectrode array (MEA) plates and Maestro recording system. Each well of the MEA plate contains a grid of 16 microelectrodes embedded in the culture surface. Electrically active cells, such as neurons, can be cultured over the electrodes, and electrical activity in these cells can be recorded extracellularly. […] Data from the assay component CCTE_Shafer_MEA_acute_spike_number was analyzed into 1 assay endpoint. […]
The source made the active and inactive calls. The calls were made as follows: active = hit-call score of the fitted dose curve at least 0.9, where 1 is the maximum; inactive = score below 0.9.
Respond only with the outcome that fits, drawn from active, inactive

[[record]]
cpd_smiles = "Clc1ccc(C(Cl)(Cl)Cl)cc1"
classification = "inactive"

[[record]]
cpd_smiles = "C=CC(N)=O"
classification = "inactive"

[[record]]
cpd_smiles = "COS(=O)(=O)OC"
classification = "inactive"


Okay, now this molecule:
Fill in: this test's call for CC#Cc1cc(C)nc(Nc2ccccc2)n1 is ___ active

====

target: Bile acid receptor (Homo sapiens); experiment: ATG_IR1_CIS: Attagene CIS-FACTORIAL HepG2 Assay for human Nuclear Receptor Subfamily 1 Group H Member 4 (NR1H4), IR1 submotif (AID 2282946); settings: IR1 reporter transcription, actives raise or lower the signal
Activity calls are given as the source filed them. Rule for the calls: active = hit-call score of the fitted dose curve at least 0.9, where 1 is the maximum; inactive = score below 0.9.
attribute-measured: AC50

[[record]]
cpd_smiles = "c1ccc(-c2ccccc2)cc1"
recorded_measurement = "inactive"

[[record]]
cpd_smiles = "CC(c1ccc(O)cc1)(c1ccc(O)cc1)c1ccc(O)cc1"
recorded_measurement = "11.1 µM (active)"

[[record]]
cpd_smiles = "Oc1c(Cl)c(Cl)c(Cl)c(Cl)c1Cl"
recorded_measurement = "inactive"

[[record]]
cpd_smiles = "Cc1cc2c3c(c1)C(c1ccccc1)=N[C@@H](NC(=O)c1ccncc1)C(=O)N3CC2"
recorded_measurement = "inactive"


Any idea what its AC50 is? The compound is O=C(O)C(F)(F)C(F)(F)C(F)(F)C(F)(F)C(F)(F)C(F)(F)C(F)(F)C(F)(F)F inactive

====

read-out: serum amyloid A (SAA), SAA1 (gene 6288); assay: BSK_CASM3C_SAA: BioMAP Diversity Plus: CASM3C Assay for serum amyloid A (SAA) Biomarker Activity (AID 2283049); conditions: primary human coronary artery smooth muscle cells; actives raise or lower the signal;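 note: SAA protein level quantified by ELISA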
Active and inactive are the calls of the source. The calls were made as follows: active = hit-call score of the fitted dose curve at least 0.9, where 1 is the maximum; inactive = score below 0.9.
attribute-measured: outcome

[[record]]
compound = "CC(C)C(=O)OCC(C)(C)C(OC(=O)C(C)C)C(C)C (configuration not stated)"
attribute_measured = "outcome"
recorded_measurement = "inactive"

[[record]]
compound = "CCC(=O)O[C@H]1CC[C@H]2[C@@H]3CCC4=CC(=O)CC[C@]4(C)[C@H]3CC[C@]12C"
attribute_measured = "outcome"
recorded_measurement = "inactive"

[[record]]
compound = "ClC1=C(Cl)[C@]2(Cl)[C@@H]3[C@@H](Cl)[C@H]4O[C@H]4[C@@H]3C1(Cl)C2(Cl)Cl"
attribute_measured = "outcome"
recorded_measurement = "inactive"

[[record]]
compound = "ClC(Cl)=C(c1ccc(Cl)cc1)c1ccc(Cl)cc1"
attribute_measured = "outcome"
recorded_measurement = "inactive"

[[record]]
compound = "C[C@]12CCC(=O)C=C1CC[C@@H]1[C@@H]2CC[C@]2(C)C(=O)CC[C@@H]12"
attribute_measured = "outcome"
recorded_measurement = "inactive"


Any idea what its outcome is? The compound is Cc1ccccc1CO[C@@H]1C[C@@]2(C(C)C)CC[C@]1(C)O2 inactive

Any idea what its outcome is? The compound is CC(C)(O)C(=O)Nc1ccc([N+](=O)[O-])c(C(F)(F)F)c1 inactive

====

test: BSK_LPS_SRB: Viability Assessment in the BioMAP Diversity Plus: LPS Assay (AID 2283079); settings: primary human HUVEC with PBMC;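 note: total protein by sulforhodamine B absorbance as a cytotoxicity measure; measured one day after compound addition; fitted in both directions against DMSO so loss or gain of signal counts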
The source made the active and inactive calls. Rule for the calls: active = hit-call score of the fitted dose curve at least 0.9, where 1 is the maximum; inactive = score below 0.9.
attribute-measured: AC50

Example entries begin here.
[[record]]
compound = "CCOC(=O)C(O)(c1ccc(Cl)cc1)c1ccc(Cl)cc1"
recorded_measurement = "34.2 µM (active)"

[[record]]
compound = "CN(C)c1nc(=O)n(C2CCCCC2)c(=O)n1C"
recorded_measurement = "inactive"

[[record]]
compound = "CCC(C)(CC)c1cc(NC(=O)c2c(OC)cccc2OC)on1"
recorded_measurement = "inactive"

[[record]]
compound = "ClC1=C(Cl)[C@]2(Cl)[C@@H]3[C@@H](Cl)[C@H]4O[C@H]4[C@@H]3C1(Cl)C2(Cl)Cl"
recorded_measurement = "6.81 µM (active)"

[[record]]
compound = "CC(C)C(=O)OCC(C)(C)C(OC(=O)C(C)C)C(C)C (configuration not stated)"
recorded_measurement = "inactive"

[[record]]
compound = "Cc1cc(-c2ccc(N)c(C)c2)ccc1N"
recorded_measurement = "inactive"


From here, focus on the item given below.
Any idea what its AC50 is? The compound is O=C(NC(=O)c1c(F)cccc1F)Nc1cc(Cl)c(OC(F)(F)C(F)F)c(Cl)c1 inactive

====

read-out: Matrix Metallopeptidase 1 (MMP1), MMP1 (gene 4312); test: BSK_hDFCGF_MMP1: BioMAP Diversity Plus: hDFCGF Assay for Matrix Metallopeptidase 1 (MMP1) Biomarker Activity (AID 2283064); conditions: primary human foreskin fibroblasts; actives raise or lower the signal
Active and inactive are the calls of the source. How the source made its calls: active means hit-call score of the fitted dose curve at least 0.9, where 1 is the maximum; inactive means score below 0.9.
Respond only with the outcome that fits, drawn from class 1 (active), class 0 (inactive)

[[record]]
cpd_smiles = "CCCN(CCC)N=O"
classification = "class 0"

[[record]]
cpd_smiles = "ClC1=C(Cl)[C@]2(Cl)[C@@H]3[C@H]4C[C@H]([C@@H]5O[C@H]45)[C@@H]3[C@@]1(Cl)C2(Cl)Cl"
classification = "class 0"

[[record]]
cpd_smiles = "Oc1ccc(Cl)cc1Cl"
classification = "class 0"

[[record]]
cpd_smiles = "ClC1=C(Cl)[C@]2(Cl)[C@@H]3[C@@H]4C[C@@H]([C@H]5O[C@@H]45)[C@@H]3[C@@]1(Cl)C2(Cl)Cl"
classification = "class 0"

[[record]]
cpd_smiles = "Cc1cc(-c2ccc(N)c(C)c2)ccc1N"
classification = "class 0"


Okay, now this compound:
Fill in: this test's call for Cc1cc2c3c(c1)C(c1ccccc1)=N[C@@H](NC(=O)c1ccncc1)C(=O)N3CC2 is ___ class 1

====

target: PGR (gene 5241) (UniProt P06401); assay: NVS_NR_hPR: NovaScreen (NVS) Nuclear Receptor Binding Assay for human Progestron Receptor (PR) (AID 2283360);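 note: active means loss of bound radioligand signal versus DMSO baseline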
Sequence (P06401 whole entry, looked up): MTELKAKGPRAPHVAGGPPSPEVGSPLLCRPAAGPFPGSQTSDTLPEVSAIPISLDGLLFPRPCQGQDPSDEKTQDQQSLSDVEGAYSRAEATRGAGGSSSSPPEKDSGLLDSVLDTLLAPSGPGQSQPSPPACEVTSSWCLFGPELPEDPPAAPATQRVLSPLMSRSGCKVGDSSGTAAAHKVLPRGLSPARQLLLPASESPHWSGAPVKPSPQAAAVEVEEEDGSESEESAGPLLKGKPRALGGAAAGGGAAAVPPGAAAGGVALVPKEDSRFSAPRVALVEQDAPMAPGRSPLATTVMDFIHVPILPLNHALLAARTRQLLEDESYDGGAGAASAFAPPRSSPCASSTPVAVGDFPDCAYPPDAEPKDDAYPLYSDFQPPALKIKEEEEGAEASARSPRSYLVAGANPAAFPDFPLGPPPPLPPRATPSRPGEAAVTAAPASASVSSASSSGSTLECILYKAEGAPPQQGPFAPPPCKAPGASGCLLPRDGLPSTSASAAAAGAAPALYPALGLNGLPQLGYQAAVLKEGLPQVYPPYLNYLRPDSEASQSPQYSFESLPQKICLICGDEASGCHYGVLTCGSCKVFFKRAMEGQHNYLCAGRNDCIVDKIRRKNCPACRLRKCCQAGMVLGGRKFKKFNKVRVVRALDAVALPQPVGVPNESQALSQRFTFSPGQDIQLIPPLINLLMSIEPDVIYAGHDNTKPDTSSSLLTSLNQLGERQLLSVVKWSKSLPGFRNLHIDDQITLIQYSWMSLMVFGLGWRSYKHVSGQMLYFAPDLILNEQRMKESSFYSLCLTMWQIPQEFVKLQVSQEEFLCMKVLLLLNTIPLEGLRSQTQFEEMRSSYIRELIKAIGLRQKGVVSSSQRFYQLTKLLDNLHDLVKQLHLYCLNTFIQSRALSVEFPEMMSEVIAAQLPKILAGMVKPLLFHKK
Inconclusive results are not listed. The source made the active and inactive calls. How the source made its calls: active means hit-call score of the fitted dose curve at least 0.9, where 1 is the maximum; inconclusive means response in the unintended direction; inactive means score below 0.9.
attribute-measured: AC50

[[record]]
cpd_smiles = "CCC(=O)O[C@H]1CC[C@H]2[C@@H]3CCC4=CC(=O)CC[C@]4(C)[C@H]3CC[C@]12C"
attribute_measured = "AC50"
recorded_measurement = "1040 nM (active)"

[[record]]
cpd_smiles = "CC(C)(O)C(=O)Nc1ccc([N+](=O)[O-])c(C(F)(F)F)c1"
attribute_measured = "AC50"
recorded_measurement = "inactive"

[[record]]
cpd_smiles = "Cc1ccc(O)c(C)c1"
attribute_measured = "AC50"
recorded_measurement = "inactive"

[[record]]
cpd_smiles = "Oc1c(Cl)c(Cl)c(Cl)c(Cl)c1Cl"
attribute_measured = "AC50"
recorded_measurement = "inactive"


====

read-out: Cellular tumor antigen p53 (Homo sapiens) (UniProt P04637); assay: LTEA_HepaRG_TP53: Life Technologies and Expression Analysis (LTEA) Assay for Tumor Protein P53 (TP53) using HepaRG (AID 2283537); details: mRNA level, 48 h; actives raise or lower the signal
Sequence (P04637 whole entry, looked up): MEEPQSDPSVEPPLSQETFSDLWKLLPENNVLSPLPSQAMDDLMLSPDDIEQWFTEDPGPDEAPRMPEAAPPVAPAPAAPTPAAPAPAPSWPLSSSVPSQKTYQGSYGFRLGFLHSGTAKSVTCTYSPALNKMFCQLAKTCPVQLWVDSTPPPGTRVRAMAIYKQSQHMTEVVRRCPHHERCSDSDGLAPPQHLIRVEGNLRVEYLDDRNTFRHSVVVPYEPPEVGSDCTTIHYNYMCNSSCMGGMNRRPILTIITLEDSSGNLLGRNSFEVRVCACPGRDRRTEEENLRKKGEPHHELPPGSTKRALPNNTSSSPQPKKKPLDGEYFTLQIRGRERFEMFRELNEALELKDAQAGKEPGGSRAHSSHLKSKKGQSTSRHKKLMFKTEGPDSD
Calls of active or inactive are those of the source. The calls were made as follows: active = hit-call score of the fitted dose curve at least 0.9, where 1 is the maximum; inactive = score below 0.9.
Respond only with the outcome that fits, drawn from active, inactive

Below are worked cases with known answers.
[[record]]
cpd_smiles = "ClC1=C(Cl)[C@]2(Cl)[C@@H]3[C@H]4C[C@H]([C@@H]5O[C@H]45)[C@@H]3[C@@]1(Cl)C2(Cl)Cl"
classification = "inactive"

[[record]]
cpd_smiles = "CCOP(=S)(OCC)SCSC(C)(C)C"
classification = "inactive"

[[record]]
cpd_smiles = "Cc1cc2c3c(c1)C(c1ccccc1)=N[C@@H](NC(=O)c1ccncc1)C(=O)N3CC2"
classification = "active"


Okay, now this compound:
Fill in: this test's call for O=C(NC(=O)c1c(F)cccc1F)Nc1cc(Cl)c(OC(F)(F)C(F)F)c(Cl)c1 is ___ inactive

The measured values listed here are drawn from PubChem BioAssay (EPA / NIEHS).
